Test: Dual polarization interferometry of protein adsorption to immobilized bilayer
Type: binding
Conditions: relative to wild type
Measured parameter: Fold change in affinity
Just the number.

query: Fold change in affinity for F169D: α-TTP mutant, Phe169 to Asp (helix A8) (protein, UniProt P49638 1-278, looked up, variant F169D) Alpha-tocopherol transfer …: MAEARSQPSAGPQLNALPDHSPLLQPGLAALRRRAREAGVPLAPLPLTDSFLLRFLRARDFDLDLAWRLLKNYYKWRAECPEISADLHPRSIIGLLKAGYHGVLRSRDPTGSKVLIYRIAHWDPKVFTAYDVFRVSLITSELIVQEVETQRNGIKAIFDLEGWQFSHADQITPSVAKKIAAVLTDSFPLKVRGIHLINEPVIFHAVFSMIKPFLTEKIKERIHMHGNNYKQSLLQHFPDILPLEYGGEEFSMEDICQEWTNFIMKSEDYLSSISESIQ ?
result: 14.3

query: Entry I202D/M209D: α-TTP double mutant (protein, UniProt P49638 1-278, looked up, variant I202D M209D) Alpha-tocopherol transfer …: MAEARSQPSAGPQLNALPDHSPLLQPGLAALRRRAREAGVPLAPLPLTDSFLLRFLRARDFDLDLAWRLLKNYYKWRAECPEISADLHPRSIIGLLKAGYHGVLRSRDPTGSKVLIYRIAHWDPKVFTAYDVFRVSLITSELIVQEVETQRNGIKAIFDLEGWQFSHAFQITPSVAKKIAAVLTDSFPLKVRGIHLINEPVDFHAVFSDIKPFLTEKIKERIHMHGNNYKQSLLQHFPDILPLEYGGEEFSMEDICQEWTNFIMKSEDYLSSISESIQ has what Fold change in affinity?
result: 10.9

query: So what does the record say about Fold change in affinity for F165D: α-TTP mutant, Phe165 to Asp (helix A8) (protein, UniProt P49638 1-278, looked up, variant F165D) Alpha-tocopherol transfer …: MAEARSQPSAGPQLNALPDHSPLLQPGLAALRRRAREAGVPLAPLPLTDSFLLRFLRARDFDLDLAWRLLKNYYKWRAECPEISADLHPRSIIGLLKAGYHGVLRSRDPTGSKVLIYRIAHWDPKVFTAYDVFRVSLITSELIVQEVETQRNGIKAIFDLEGWQDSHAFQITPSVAKKIAAVLTDSFPLKVRGIHLINEPVIFHAVFSMIKPFLTEKIKERIHMHGNNYKQSLLQHFPDILPLEYGGEEFSMEDICQEWTNFIMKSEDYLSSISESIQ ?
result: 12.2

query: Give its Fold change in affinity value. Item: I202D: α-TTP mutant, Ile202 to Asp (helix A10) (protein, UniProt P49638 1-278, looked up, variant I202D) Alpha-tocopherol transfer …: MAEARSQPSAGPQLNALPDHSPLLQPGLAALRRRAREAGVPLAPLPLTDSFLLRFLRARDFDLDLAWRLLKNYYKWRAECPEISADLHPRSIIGLLKAGYHGVLRSRDPTGSKVLIYRIAHWDPKVFTAYDVFRVSLITSELIVQEVETQRNGIKAIFDLEGWQFSHAFQITPSVAKKIAAVLTDSFPLKVRGIHLINEPVDFHAVFSMIKPFLTEKIKERIHMHGNNYKQSLLQHFPDILPLEYGGEEFSMEDICQEWTNFIMKSEDYLSSISESIQ
result: 5

query: Which Fold change in affinity reading was recorded for the molecule M209D: α-TTP mutant, Met209 to Asp (helix A10) (protein, UniProt P49638 1-278, looked up, variant M209D) Alpha-tocopherol transfer …: MAEARSQPSAGPQLNALPDHSPLLQPGLAALRRRAREAGVPLAPLPLTDSFLLRFLRARDFDLDLAWRLLKNYYKWRAECPEISADLHPRSIIGLLKAGYHGVLRSRDPTGSKVLIYRIAHWDPKVFTAYDVFRVSLITSELIVQEVETQRNGIKAIFDLEGWQFSHAFQITPSVAKKIAAVLTDSFPLKVRGIHLINEPVIFHAVFSDIKPFLTEKIKERIHMHGNNYKQSLLQHFPDILPLEYGGEEFSMEDICQEWTNFIMKSEDYLSSISESIQ ?
result: 1.2

query: Requested field: Fold change in affinity. Item: F165A: α-TTP mutant, Phe165 to Ala (protein, UniProt P49638 1-278, looked up, variant F165A) Alpha-tocopherol transfer …: MAEARSQPSAGPQLNALPDHSPLLQPGLAALRRRAREAGVPLAPLPLTDSFLLRFLRARDFDLDLAWRLLKNYYKWRAECPEISADLHPRSIIGLLKAGYHGVLRSRDPTGSKVLIYRIAHWDPKVFTAYDVFRVSLITSELIVQEVETQRNGIKAIFDLEGWQASHAFQITPSVAKKIAAVLTDSFPLKVRGIHLINEPVIFHAVFSMIKPFLTEKIKERIHMHGNNYKQSLLQHFPDILPLEYGGEEFSMEDICQEWTNFIMKSEDYLSSISESIQ
result: 5.1
